# targetEntity: T1, EsCas13d, nuclease-dead (Eubacterium siraeum, UniProt B0MS50, R295A;H300A;R849A;H854A)
# T1 sequence: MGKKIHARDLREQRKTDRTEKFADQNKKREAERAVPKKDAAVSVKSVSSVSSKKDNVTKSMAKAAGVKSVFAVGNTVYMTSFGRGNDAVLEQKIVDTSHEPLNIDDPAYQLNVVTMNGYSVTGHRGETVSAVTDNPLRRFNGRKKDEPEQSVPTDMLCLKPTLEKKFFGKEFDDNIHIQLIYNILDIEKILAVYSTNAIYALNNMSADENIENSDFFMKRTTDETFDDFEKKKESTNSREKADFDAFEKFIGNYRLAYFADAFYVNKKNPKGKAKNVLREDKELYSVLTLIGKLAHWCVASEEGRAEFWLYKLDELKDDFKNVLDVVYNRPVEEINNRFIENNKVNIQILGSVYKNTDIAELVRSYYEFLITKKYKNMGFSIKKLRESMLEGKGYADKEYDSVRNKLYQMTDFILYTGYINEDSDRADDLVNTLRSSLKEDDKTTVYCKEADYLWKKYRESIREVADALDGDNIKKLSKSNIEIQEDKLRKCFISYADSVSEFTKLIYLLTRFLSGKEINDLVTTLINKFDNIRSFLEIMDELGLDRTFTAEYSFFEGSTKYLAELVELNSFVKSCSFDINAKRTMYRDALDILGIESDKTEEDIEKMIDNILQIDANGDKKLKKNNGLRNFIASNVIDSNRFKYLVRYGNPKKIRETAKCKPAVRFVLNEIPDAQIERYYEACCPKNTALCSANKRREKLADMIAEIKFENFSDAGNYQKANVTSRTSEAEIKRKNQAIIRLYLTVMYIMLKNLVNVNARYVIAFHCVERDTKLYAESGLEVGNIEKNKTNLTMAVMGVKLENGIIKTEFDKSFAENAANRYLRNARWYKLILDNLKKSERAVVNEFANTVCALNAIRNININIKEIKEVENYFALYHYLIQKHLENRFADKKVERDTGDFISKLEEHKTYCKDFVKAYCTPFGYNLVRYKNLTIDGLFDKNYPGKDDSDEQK
# protocol: crRNA (strand 1, pre-loaded); Mg2+; 40 mM Tris-HCl pH 7.5, 150 mM NaCl, 6 mM MgCl2, 1 mM DTT, 0.1% Tween-20, 0.2 mg/ml BSA; 25 C; 10 min per concentration, then washed
# conditionSet: tags: His6-TwinStrep-SUMO cleaved; N-terminal SNAP kept (SNAP-Surface 488); label: 3' end held by stalled T7 RNA polymerase
parameter: log10 of Kd (log10 of the value in nM)
Scale: decimal log of Kd, Kd in nM.

Here is how some binders turned out for log10 of Kd.
{"columns": ["binder", "log10 of Kd"],
 "data": [
  ["target 1 insC 3' of 17,insU 3' of 17 (mixed) RNA 1: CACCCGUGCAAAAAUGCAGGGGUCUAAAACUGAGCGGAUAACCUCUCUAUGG RNA 2: GGGAAUGGAUCCACAUCUACGAAUUCGUACCAUAGCUAGAGGUUAUCCGCUCACCGAGAUCGGAAGAGCACACGU", 1.98],
  ["target 1 U3A,C7A (mixed) RNA 1: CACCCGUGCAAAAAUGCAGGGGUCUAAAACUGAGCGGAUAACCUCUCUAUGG RNA 2: GGGAAUGGAUCCACAUCUACGAAUUCGUACCAUAGAGAGGUUAUACGCACACCGAGAUCGGAAGAGCACACGU", 0.85],
  ["target 2 MT 5'PFS GGC 3'PFS AGC (mixed) RNA 1: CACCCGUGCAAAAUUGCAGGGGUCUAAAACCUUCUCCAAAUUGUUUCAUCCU RNA 2: GGGAAUGGAUCCACAUCUACGAAUUCGGCAGGAUGAAACAAUUUGGAGAAGAGCAGAUCGGAAGAGCACACGU", 1.08],
  ["target 2 MT 5'PFS UCA 3'PFS AAC (mixed) RNA 1: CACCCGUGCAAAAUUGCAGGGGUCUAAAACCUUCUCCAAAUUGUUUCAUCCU RNA 2: GGGAAUGGAUCCACAUCUACGAAUUCUCAAGGAUGAAACAAUUUGGAGAAGAACAGAUCGGAAGAGCACACGU", 0.88]
]}

Provide log10 of Kd values for the following items, in order.
1. target 1 MT 5'PFS GUU 3'PFS AAC (mixed) RNA 1: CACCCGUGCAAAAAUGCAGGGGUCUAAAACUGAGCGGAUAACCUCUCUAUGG RNA 2: GGGAAUGGAUCCACAUCUACGAAUUCGUUCCAUAGAGAGGUUAUCCGCUCAAACAGAUCGGAAGAGCACACGU
2. target 2 MT 5'PFS AUG 3'PFS UGU (mixed) RNA 1: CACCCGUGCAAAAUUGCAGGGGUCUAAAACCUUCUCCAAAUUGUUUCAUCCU RNA 2: GGGAAUGGAUCCACAUCUACGAAUUCAUGAGGAUGAAACAAUUUGGAGAAGUGUAGAUCGGAAGAGCACACGU
3. target 2 MT 5'PFS GAU 3'PFS CGU (mixed) RNA 1: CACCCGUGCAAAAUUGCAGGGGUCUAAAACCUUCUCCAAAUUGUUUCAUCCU RNA 2: GGGAAUGGAUCCACAUCUACGAAUUCGAUAGGAUGAAACAAUUUGGAGAAGCGUAGAUCGGAAGAGCACACGU
4. target 1 A14C,C21U (mixed) RNA 1: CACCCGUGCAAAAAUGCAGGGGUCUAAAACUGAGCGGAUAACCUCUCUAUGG RNA 2: GGGAAUGGAUCCACAUCUACGAAUUCGUACUAUAGAGCGGUUAUCCGCUCACCGAGAUCGGAAGAGCACACGU

Output line:
[1.72, 1.32, 1.15, 0.86]
